- System: GST-tagged Cn
- Assay Info: PEPperPRINT peptide microarray binding assay with GST-tagged Cn
- Experimental Conditions: GST-tagged Cn, max over the spots named in Location on chip
The following sequences are shown together with reported Chip Fluorescence (max) values.
Enter the number alone.

In [3]: df
Out[3]:
                             residues  readout_number
0  AKMAPPAINIDFAPPN [SeqRBMlowT_7690]           1.862

Ask | Any idea what Chip Fluorescence (max) was measured for PALESPRIEITSYLGM [SeqNFATC1_Canis_lupus] ?
Reply | 1.5159

Ask | Any idea what Chip Fluorescence (max) was measured for PMMAVPSISSDVSNAP [SeqRBM_5566] ?
Reply | 1.398

Ask | Any idea what Chip Fluorescence (max) was measured for TFWSNPQFKVSLEEPD [SeqRBMlowT_2967] ?
Reply | 1.583
